- protocol: growth suppression of beta-catenin knockout HCT116, pilot screen, human colon tumor cells (AID 823);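 note: 0% = wells killed by 20 µM Hyamine and 100% = untreated DMSO cell wells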
- assay-context: CellTiter-Glo, 60 h, at 10 µM, active compounds read low
Results filed as inconclusive are left out.
readout-label: viability (%)
Write it as a number; the unit % goes unstated.

Here are 3 compounds together with their reported answers.
Item under review: COc1ccc(C(=O)N2CCN(C(=O)c3ccco3)CC2)cc1 . Reported viability? 100

Item under review: COc1cc2[nH]c(=O)n(CCCCCC(=O)NCCCN3CCC(C)CC3)c(=O)c2cc1OC . Reported viability? 93.8

Item under review: COC(=O)c1cc(NC2c3ccccc3C(=O)N2c2ccc(Cl)cn2)cc(C(=O)OC)c1 (stereo not drawn) . Reported viability? 71.2

Further cases:
Item under review: CCOC(=O)N1CCC(N2Cc3cccc(C(=O)Nc4ccc(OC)c(OC)c4)c3C2=O)CC1 . Reported viability? 66.2

Item under review: COc1ccc(OC)c(S(=O)(=O)n2nc(-c3ccccc3)cc2N)c1 . Reported viability? 104

Item under review: N#CCc1ccc(NS(=O)(=O)c2ccc(N3CCCC3=O)cc2)cc1 . Reported viability? 89.8

---

- protocol: Restrictive medium S. cerevisiae growth inhibition, OD615, pilot screen of yeast lifespan reduction project, restrictive growth control (AID 706);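 note: modified DeaD lifespan yeast strain shifted to restrictive glucose medium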
- assay-context: OD615, 48 h, at 10 µM, active compounds read high
The source made the active and inactive calls.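 Rule for the calls: active = growth inhibition above a set limit, 3 SD over mean compound inhibition, in both replicates (cut at about 43% in these data); inconclusive = above the limit in only one replicate; inactive = at or below the limit in both replicates.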
readout-label: growth inhibition

Item under review: CC(C)N(Cc1nc(-c2ccc(Cl)cc2)no1)C(=O)CCCN1C(=O)c2ccccc2C1=O . Reported growth inhibition? -15.6% (inactive)

Item under review: Cc1ccc(OCCCN(C)C)c(Br)c1 . Reported growth inhibition? -6.73% (inactive)

Item under review: CCOC(=O)N1CCC(NC(=O)CCc2c(C)nc3c(c(C)nn3-c3ccccc3)c2C)CC1 . Reported growth inhibition? 0.22% (inactive)

Further cases:
Item under review: Cc1nn(Cc2nc(-c3cccs3)no2)c(C)c1Br . Reported growth inhibition? 12% (inactive)

Item under review: COc1ccc(S(=O)(=O)Cc2ccc(C(=O)N3CCN(c4ncccn4)CC3)o2)cc1 . Reported growth inhibition? 4.27% (inactive)

Item under review: CCOC(=O)N1CCN(c2c(NCc3ccccn3)c(=O)c2=O)CC1 . Reported growth inhibition? 18.2% (inactive)

---

Collected RAM network inhibition values appear next to each entry.
- protocol: RAM signaling pathway blockade in yeast – S. cerevisiae, Pdr1DBD-CYC8 efflux-inhibited sensitized strain, primary screen (AID 1298);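 note: 0% = DMSO untreated cells without growth and 100% = 10 µM 1-NA-PP1 full growth; higher means more yeast growth rescued from 5-FOA killing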
- assay-context: S. cerevisiae cbk1-as DSE1-URA3 strain, 5-FOA growth OD615, 2 d; at 50 µM; active compounds read high
Calls of active or inactive are those of the source.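 Rule for the calls: active = RAM network inhibition above 8.4% in each of two replicates, 3 SD over the compound average; inconclusive = above 8.4% inhibition in only one replicate; inactive = 8.4% inhibition or less in each replicate.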

Item under review: CC1=CC(C)(C)N(C(=O)CSc2nccn2C)c2cc(C)ccc21 . Reported RAM network inhibition? 0.77% (inactive)

Item under review: O=C(Cn1ncc2c1-c1ccccc1OC2)N(Cc1ccco1)C1CCCCC1 . Reported RAM network inhibition? 3.96% (inactive)

Item under review: COc1ccccc1-c1cc(C(=O)N2CCCCC2)no1 . Reported RAM network inhibition? 4.18% (inactive)

Item under review: CN(C)Cc1c(O)ccc2occ(C(O)c3ccccc3)c12 (centres undefined) . Reported RAM network inhibition? 4.33% (inactive)

Item under review: CCCCC(=O)Nc1ccc2c(c1)C(=O)NC2=O . Reported RAM network inhibition? 2.45% (inactive)

Further cases:
Item under review: CC(CCc1ccccc1)NC(=O)c1nnc(Cc2ccc(F)cc2)o1 (centres undefined) . Reported RAM network inhibition? 1.1% (inactive)

Item under review: COc1ccc(OC)c(NC(=O)COC(=O)c2ccc(S(=O)(=O)N3CCOCC3)cc2)c1 . Reported RAM network inhibition? 5.32% (inactive)

Item under review: COc1cccc(C2NC(=O)NC(O)(C(F)(F)F)C2C(=O)c2cccnc2)c1OC (centres undefined) . Reported RAM network inhibition? 0.92% (inactive)

Item under review: CN(C)c1ccc(C2N(c3ccc(Cl)cc3)C(=O)C3CCCN32)cc1 (centres undefined) . Reported RAM network inhibition? 1.57% (inactive)

Item under review: Cc1ccc(C(=O)CC2(O)C(=O)N(C)c3ccccc32)o1 (centres undefined) . Reported RAM network inhibition? 1.32% (inactive)

Item under review: Cc1nn(C)cc1CN(C)C(=O)c1sc2cccc(Cl)c2c1Cl . Reported RAM network inhibition? 3.58% (inactive)

---

- protocol: growth suppression of PTEN-deleted HCT116, pilot screen, cell-based, HCT116 clonal line, CellTiter-Glo (AID 824);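 note: 0% = 20 µM Hyamine control and 100% = vehicle cell control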
- assay-context: 60 h, at 10 µM, active compounds read low
Results filed as inconclusive are left out.
readout-label: viability (%)
Write it as a number; the unit % goes unstated.

Here are 5 compounds together with their reported answers.
Item under review: COc1ccc(N2CCN(S(=O)(=O)c3cccc4cccnc34)CC2)cc1 . Reported viability? 83.6

Item under review: Cc1cc2oc3c(c(=O)c2cc1C)C(c1ccc(C(C)C)cc1)N(CCCN1CCOCC1)C3=O (stereo unspecified) . Reported viability? 86.5

Item under review: CN=C(NC)SC1CC(=O)N(c2ccccc2)C1=O (stereo unspecified) . Reported viability? 101

Item under review: COc1cc(SC)ccc1C(=O)Nc1ccc2c(c1)CCN2S(C)(=O)=O . Reported viability? 94.2

Item under review: COc1nc(Nc2ccc3c(c2)OCO3)nc(OC)n1 . Reported viability? 93.6

Moving on to another compound below.
Item under review: OCCN1CCN(Cc2cccc(Oc3ccc(Cl)cc3)c2)CC1 . Reported viability? 73.1

---

- protocol: Restrictive medium S. cerevisiae growth inhibition, OD615, pilot screen of yeast lifespan reduction project, restrictive growth control (AID 706);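 note: modified DeaD lifespan yeast strain shifted to restrictive glucose medium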
- assay-context: OD615, 48 h, at 10 µM, active compounds read high
readout-label: growth inhibition (%)
Write it as a number; the unit % goes unstated.

Here are 5 molecules together with their reported answers.
Item under review: CCN1CCN(C(=O)Cn2c(=O)sc3ccccc32)CC1 . Reported growth inhibition? 4.76

Item under review: CCOC(=O)CCSCC(=O)Nc1nnc(C)s1 . Reported growth inhibition? -0.57

Item under review: O=C(NCC1(c2ccccc2)CCOCC1)c1ccc(Br)o1 . Reported growth inhibition? -3.91

Item under review: COc1ccc(-c2cn3c(C)c(C(=O)N4CCN(c5ccccc5)CC4)sc3n2)cc1 . Reported growth inhibition? -13.6

Item under review: CCOc1ccc(CC(=O)N2CCN(c3ccc(N4CCOCC4)nn3)CC2)cc1OCC . Reported growth inhibition? 8.3

Further cases:
Item under review: Cc1c(C(=O)Nc2ccncc2)sc2nc(-c3ccccc3)cn12 . Reported growth inhibition? 9.21

Item under review: CS(=O)(=O)N1CCN(c2nc(-c3ccccc3)cs2)CC1 . Reported growth inhibition? 3.18

Item under review: Cc1cc(NCc2ccco2)nc2cc(O)ccc12 . Reported growth inhibition? -28.8

Item under review: COC(=O)CCS(=O)(=O)c1cc(Cl)ccc1Cl . Reported growth inhibition? 7.17

Item under review: COc1ccc(Cl)cc1N(CC(=O)N1CCC(C)CC1)S(C)(=O)=O . Reported growth inhibition? 0.85

---

- protocol: inhibitors of the yeast RAM network, pilot screen, dse1pr::URA3 reporter, 5-FOA selection (AID 869);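 note: 0% = DMSO wells with no growth and 100% = 10 µM 1-NA-PP1 with full growth; RAM network block rescues cells from 5-FOA so hits raise OD615 growth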
- assay-context: S. cerevisiae dse1pr::URA3 5-FOA growth, OD615, 2 d; at 10 µM; active compounds read high; strain carries analog-sensitive mutant Cbk1 kinase
readout-label: inhibition (%)
Write it as a number; the unit % goes unstated.

Here are 5 compounds together with their reported answers.
Item under review: CCN1CCN(c2ncnc3c2cnn3-c2ccccc2)CC1 . Reported inhibition? 1.7

Item under review: COC(=O)CN(n1cnnc1)S(=O)(=O)c1ccccc1 . Reported inhibition? 1.23

Item under review: CN(Cc1ccccc1)C(=O)CCS(=O)(=O)c1ccc2c(c1)n(C)c(=O)c(=O)n2C . Reported inhibition? 1.23

Item under review: Clc1ccc(-c2nc(-c3ccccn3)no2)cc1Cl . Reported inhibition? 2.6

Item under review: COc1cccc(NS(=O)(=O)c2nc3nc(C)cc(C)n3n2)c1 . Reported inhibition? 2.01

Further cases:
Item under review: S=c1sc2c(N3CCOCC3)ncnc2n1-c1ccccc1 . Reported inhibition? 1.64

---

- protocol: growth suppression of beta-catenin knockout HCT116, pilot screen, human colon tumor cells (AID 823);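 note: 0% = wells killed by 20 µM Hyamine and 100% = untreated DMSO cell wells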
- assay-context: CellTiter-Glo, 60 h, at 10 µM, active compounds read low
Inconclusive results are not listed.
Collected viability values appear next to each entry.
Write it as a number; the unit % goes unstated.

Here are 3 molecules together with their reported answers.
Item under review: O=C1c2cccnc2C(=O)N1Cc1ccccc1 . Reported viability? 101

Item under review: Cc1nc2c3ccccc3n(CC(=O)c3ccc(F)cc3)c(=O)n2n1 . Reported viability? 96.8

Item under review: COc1ccc(NC(=O)c2c(NC(=O)CNCc3ccco3)sc3c2CCC3)c(OC)c1 . Reported viability? 88.7

Further cases:
Item under review: COCC(C)NC(=O)c1cc(-c2ccc(O)cc2)on1 (stereo unspecified) . Reported viability? 105
